- TESTED TARGET: T1, AFP158/HLA-A*02:01 complex (human)
- T1 construct: flowed as analyte in SPR
- TEST METHOD NOTES: SPR, fold vs AS170036 VL1VH1;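 also: crude scFv muteins immobilised on a sensor chip, peptide–MHC complex passed over at several concentrations, binding then buffer-driven dissociation, KD estimated from on- and off-rates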
QUANTITY: Affinity increase (fold)
Report the value in fold with no unit label.

Recorded Affinity increase, per entry:
# BINDER, UNITS, VALUE
rows = [
    ("AS170036 VL1VH1-57M98Q (scFv, also called 15-AS170036 VL1VH1-57M98Q) scFv: QSALTQPRSVSGSPGQSVTISCAGTSSDVGSENYVSWYQQHPGKAPKLMIYQVNKRASGVPDRFSGSKSGNTASLTISGLQAEDEADYYCASYRSSDQNIVFGGGTKLTVLGGGGSGGGGSGGGGSEVQLVESGGGLVQPGGSLRLSCAASGFTFSSYAMSWVRQAPGKGLEWVSTINSGTGMPYYADSVKGRFTISRDNSKNTLYLQMNSLRAEDTAVYYCAKNFFDGSWFLGPPAMDYWGQGTLVTVSSHHHHHH", "fold", 8),
    ("AS170036 VL1VH1-57H108A (scFv, also called 22-AS170036 VL1VH1-57H108A) scFv: QSALTQPRSVSGSPGQSVTISCAGTSSDVGSENYVSWYQQHPGKAPKLMIYQVNKRASGVPDRFSGSKSGNTASLTISGLQAEDEADYYCASYRSSDHNIVFGGGTKLTVLGGGGSGGGGSGGGGSEVQLVESGGGLVQPGGSLRLSCAASGFTFSSYAMSWVRQAPGKGLEWVSTINSGTGHPYYADSVKGRFTISRDNSKNTLYLQMNSLRAEDTAVYYCAKNFFDGSWFLAPPAMDYWGQGTLVTVSSHHHHHH", "fold", 32.5),
    ("AS170036 VL1VH1-57M98I (scFv, also called 14-AS170036 VL1VH1-57M98I) scFv: QSALTQPRSVSGSPGQSVTISCAGTSSDVGSENYVSWYQQHPGKAPKLMIYQVNKRASGVPDRFSGSKSGNTASLTISGLQAEDEADYYCASYRSSDINIVFGGGTKLTVLGGGGSGGGGSGGGGSEVQLVESGGGLVQPGGSLRLSCAASGFTFSSYAMSWVRQAPGKGLEWVSTINSGTGMPYYADSVKGRFTISRDNSKNTLYLQMNSLRAEDTAVYYCAKNFFDGSWFLGPPAMDYWGQGTLVTVSSHHHHHH", "fold", 5.6),
    ("AS170036 VL1VH1-57M98F (scFv, also called 13-AS170036 VL1VH1-57M98F) scFv: QSALTQPRSVSGSPGQSVTISCAGTSSDVGSENYVSWYQQHPGKAPKLMIYQVNKRASGVPDRFSGSKSGNTASLTISGLQAEDEADYYCASYRSSDFNIVFGGGTKLTVLGGGGSGGGGSGGGGSEVQLVESGGGLVQPGGSLRLSCAASGFTFSSYAMSWVRQAPGKGLEWVSTINSGTGMPYYADSVKGRFTISRDNSKNTLYLQMNSLRAEDTAVYYCAKNFFDGSWFLGPPAMDYWGQGTLVTVSSHHHHHH", "fold", 9.3),
]

Then this binder:
Ask | Suppose we examine the binder AS170036 VL1VH1-57K98F (scFv, also called 10-AS170036 VL1VH1-57K98F) scFv: QSALTQPRSVSGSPGQSVTISCAGTSSDVGSENYVSWYQQHPGKAPKLMIYQVNKRASGVPDRFSGSKSGNTASLTISGLQAEDEADYYCASYRSSDFNIVFGGGTKLTVLGGGGSGGGGSGGGGSEVQLVESGGGLVQPGGSLRLSCAASGFTFSSYAMSWVRQAPGKGLEWVSTINSGTGKPYYADSVKGRFTISRDNSKNTLYLQMNSLRAEDTAVYYCAKNFFDGSWFLGPPAMDYWGQGTLVTVSSHHHHHH ; what Affinity increase value has been reported?
Reply | 11.8

The values you see were collected from patent US20240279318A1.
